System: adjuvant-induced polyarthritis
Test: Effect on the development of adjuvant-induced polyarthritis in rat (hind paw volume)
Type: in vivo, Sprague Dawley rat
Settings: 552 h, 30 mg/kg of body weight, daily oral, day 23, mean inhibition for increase of hind paw volume, 8 rats/group, read-out: Inhibition(%) 23 days
Protocol: The compounds of the present invention show excellent anti-inflammatory activity as measured by their ability to inhibit adjuvant induced polyarthritis as compared with the known epoxysuccinates. […] The activity is measured as the mean inhibition percent for the increase of the hind paw volume of the 8 rats/group on the days 17 and 23 on which the legs become inflamed and reach maximum volumes. […]
As shown below, each of these molecules has a reported inhibition in vivo at 30 mg/kg value.
State the result as a value with its unit after it.

Example entries and their recorded answers appear below.
molecule: CCNC(=O)[C@H]1O[C@@H]1C(=O)OC1CCCCC1 (relative stereo) [Compound No. 66, Cyclohexyl N-ethyl-2,3-epoxysuccinamate]
result: 62%
--
molecule: CCOC(=O)[C@@H]1O[C@H]1C(=O)Nc1ccc([N+](=O)[O-])cc1 (relative stereo)
result: 48%
--
molecule: O=C(Nc1ccccc1)[C@H]1O[C@@H]1C(=O)OC1CCCCC1 (relative stereo) [Compound No. 45, Cyclohexyl N-phenyl-2,3-epoxysuccinamate]
result: 49%

Please find the next molecule below.
Prompt line: // Input: CCOC(=O)[C@@H]1O[C@H]1C(=O)N1CCC(C)CC1 (relative stereo) . Output its inhibition in vivo at 30 mg/kg only.
Response line: 42%

* * *

system: adjuvant-induced polyarthritis; assay: Effect on the development of adjuvant-induced polyarthritis in rat (hind paw volume); type: in vivo, Sprague Dawley rat; details: 552 h, 30 mg/kg of body weight, daily oral, day 23, mean inhibition for increase of hind paw volume, 8 rats/group, read-out: Inhibition(%) 23 days
measured.endpoint: inhibition in vivo at 30 mg/kg (%)
Unit % implied. Number only.

// worked examples, inhibition in vivo at 30 mg/kg included
compound: O=C(NC1CCCCC1)[C@@H]1O[C@H]1C(=O)OC1CCCC1 (relative stereo) [Compound No. 25]
system.name: adjuvant-induced polyarthritis
inhibition in vivo at 30 mg/kg, %: 58
--
compound: O=C(O)[C@@H]1O[C@H]1C(=O)NCC1CCCCC1 (relative stereo) [Compound No. 98]
system.name: adjuvant-induced polyarthritis
inhibition in vivo at 30 mg/kg, %: 41
--
compound: CCOC(=O)[C@@H]1O[C@H]1C(=O)N(C)C1CCCCC1 (relative stereo) [Compound No. 31]
system.name: adjuvant-induced polyarthritis
inhibition in vivo at 30 mg/kg, %: 38

Prompt line: Give the measured inhibition in vivo at 30 mg/kg for CCOC(=O)[C@@H]1O[C@H]1C(=O)Nc1ccccc1 (relative stereo) [Compound No. 1, ethyl N-phenyl-2,3-epoxysuccinamate]
Response line: 62

Prompt line: Answer with the recorded inhibition in vivo at 30 mg/kg of O=C(NCc1ccccc1)[C@H]1O[C@@H]1C(=O)Oc1ccccc1 (relative stereo) [Compound No. 48, Phenyl N-benzyl-2,3-epoxysuccinamate] only.
Response line: 40

Prompt line: Output measured inhibition in vivo at 30 mg/kg for this item: CC(C)COC(=O)[C@H]1O[C@@H]1C(=O)Nc1ccccc1 (relative stereo) [Compound No. 40, Isobutyl N-phenyl-2,3-epoxysuccinamate]
Response line: 35

* * *

test system: adjuvant-induced polyarthritis; assay: Effect on the development of adjuvant-induced polyarthritis in rat (hind paw volume); type: in vivo, Sprague Dawley rat; settings: 408 h, 30 mg/kg of body weight, daily oral, day 17, mean inhibition for increase of hind paw volume, 8 rats/group, read-out: Inhibition(%) 17 days
measured.endpoint: inhibition in vivo at 30 mg/kg (%)
Kindly provide the numeric value in % only, without the unit symbol.

molecule: CCOC(=O)[C@@H]1O[C@H]1C(=O)N1CCC(C)CC1 (relative stereo)
inhibition in vivo at 30 mg/kg / %: 48
--
molecule: CCNC(=O)[C@H]1O[C@@H]1C(=O)OC1CCCCC1 (relative stereo) [Compound No. 66, Cyclohexyl N-ethyl-2,3-epoxysuccinamate]
inhibition in vivo at 30 mg/kg / %: 75

Prompt line: # return recorded inhibition in vivo at 30 mg/kg for entry O=C(NC1CCCCC1)[C@@H]1O[C@H]1C(=O)OC1CCCC1 (relative stereo)
Response line: 76

Prompt line: Given the molecule CCOC(=O)[C@@H]1O[C@H]1C(=O)Nc1ccccc1 (relative stereo) [Compound No. 1, ethyl N-phenyl-2,3-epoxysuccinamate] , write its reported inhibition in vivo at 30 mg/kg.
Response line: 70

The measurements presented in this section are drawn from patent US4387238A.
